- EXPERIMENT_NOTES: Thermodynamic equilibrium solubility
- Assay type: physicochemical
- PARTICULARS: 25 °C, thermodynamic from solid, simulated intestinal fluid; read-out: Solubility in SIF
READOUT_LABEL: solubility

Query: I have this molecule here, `O=C1c2ccccc2-[n+]2ccc3c([nH]c4ccccc43)c21.[Cl-]` , and I need its recorded solubility.
Result: > 1500 µg/mL

* * *

- EXPERIMENT_NOTES: Thermodynamic equilibrium solubility
- Type: physicochemical
- PARTICULARS: 25 °C, water, thermodynamic from solid, Solubility in Water
Exercise: for every item that follows, state its recorded solubility.

Hey, quick one: what's solubility for each of these?
1. O=C1c2cc(F)c(F)cc2-[n+]2ccc3c([nH]c4ccccc43)c21 [Compound 6, 4,5-difluoro-fascaplysin]
2. Cn1c2ccccc2c2cc[n+](C)c(C(=O)c3ccccc3Br)c21 [Compound 11]

Result:
["> 800 µg/mL", "> 800 µg/mL"]

* * *

- EXPERIMENT_NOTES: Thermodynamic equilibrium solubility
- Format: physicochemical
- PARTICULARS: 25 °C, aqueous buffer, thermodynamic from solid, phosphate buffer saline; read-out: Solubility in PBS
READOUT_LABEL: solubility

Query: I have this compound here, `O=C1c2ccccc2-[n+]2ccc3c([nH]c4ccccc43)c21.[Cl-]` , and I need its recorded solubility.
Result: > 1.5 mg/mL
